- TEST DETAILS: melting temperature; melt of duplexes
- CONDITION DETAILS: sodium 0.0675 M; strand 1 µM
QUANTITY KIND: Tm (°C)
Give bare numbers, in °C.

Observe how each entry below is paired with its result.
{"SUBSTANCE": "CGACGTGCCAAATGTGCTG+CAGCACATACCGCACGTCG ((((((((...((((((((+))))))))...))))))))", "ASSAY RESULT": 47.3}
{"SUBSTANCE": "CGACGTGCACAATGTGCTG+CAGCACATACGGCACGTCG ((((((((...((((((((+))))))))...))))))))", "ASSAY RESULT": 44.7}
{"SUBSTANCE": "CGACGTGCCGGATGTGCTG+CAGCACATGTGGCACGTCG (((((((((..((((((((+))))))))..)))))))))", "ASSAY RESULT": 57.3}
{"SUBSTANCE": "CGACGTGCAAGATGTGCTG+CAGCACATCCGGCACGTCG ((((((((..(((((((((+)))))))))..))))))))", "ASSAY RESULT": 54.9}
{"SUBSTANCE": "CGACGTGCTGAATGTGCTG+CAGCACATCTAGCACGTCG (((((((((..((((((((+))))))))..)))))))))", "ASSAY RESULT": 53}
{"SUBSTANCE": "CGACGTGCATTATGTGCTG+CAGCACATCGCGCACGTCG ((((((((...((((((((+))))))))...))))))))", "ASSAY RESULT": 45.8}

Parameters: items (list). Returns: Tm for each item.
1. CGACGTGCTGTATGTGCTG+CAGCACATGGGGCACGTCG ((((((((...((((((((+))))))))...))))))))
2. CGACGTGCCGTATGTGCTG+CAGCACATATCGCACGTCG ((((((((..(((((((((+)))))))))..))))))))

[51.4, 51.8]

Below are some substances; for each one, tell me its Tm.
1. CGACGTGCCGGATGTGCTG+CAGCACATGTTGCACGTCG ((((((((...((((((((+))))))))...))))))))
2. CGACGTGCACAATGTGCTG+CAGCACATAGTGCACGTCG ((((((((((.((((((((+)))))))).))))))))))
3. CGACGTGCCTGATGTGCTG+CAGCACATCATGCACGTCG ((((((((.((((((((((+)))))))))).))))))))
4. CGACGTGCATAATGTGCTG+CAGCACATTCGGCACGTCG ((((((((..(((((((((+)))))))))..))))))))

1. 48.1
2. 53.5
3. 56.9
4. 51.8
